Molecular target: Human recombinant eIF4E protein (Homo sapiens, UniProt P06730)
Construct: V28-V217; made in house; host or cells: Escherichia coli BL21 (DE3)
Sequence (P06730 28-217): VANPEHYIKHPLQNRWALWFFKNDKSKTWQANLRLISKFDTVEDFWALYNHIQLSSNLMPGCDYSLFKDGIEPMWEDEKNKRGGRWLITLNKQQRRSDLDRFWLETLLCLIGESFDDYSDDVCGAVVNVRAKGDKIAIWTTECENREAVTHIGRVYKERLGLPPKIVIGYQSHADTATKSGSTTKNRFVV
Assay: Surface plasmon resonance binding of stapled-peptides to immobilized eIF4E
Conditions: SPR, Biacore T200; eIF4E on CM5 chip, m7GTP; HBS-EP+ with 1 mM DTT, 3% DMSO; mean ± SEM from at-least two independent experiments; SEM; read-out: K D, binding affinity (kinetic KD) measured as a ratio of koff/kon
Numbered stars: 1 amine (or outer) side, 2 acyl side, 3 side chain; on linkers, the order of the positions; unused ones are H or OH. Bridge positions count the residues as written; N and C are the ends. Square brackets hold non-standard residues; d marks the D form. Peptide text beside a SMILES is read from it. ξ: configuration not given here. ξαMeNle(6-ylidene) = CC(CCCC=[*:3])(N[*:1])C(=O)[*:2]; R5 = C=CCCC[C@@](C)(N)C(=O)O; S5 = C=CCCC[C@](C)(N)C(=O)O
metricName: Kd (nM)
Report only the number, with the unit nM understood.

Per the record, CC(=O)N[C@@H](CCCCN)C(=O)N[C@@H](CCCCN)C(=O)N[C@@H](CCCNC(=N)N)C(=O)N[C@@H](Cc1ccc(O)cc1)C(=O)N[C@@H](CO)C(=O)N[C@@H](CCCNC(=N)N)C(=O)N[C@@]1(C)CCCC=CCCC[C@@](C)(C(=O)N[C@@H](Cc2ccccc2)C(=O)N[C@@H](CCCNC(=N)N)C(=O)N[C@@H](CCCNC(=N)N)C(=O)N[C@@H](CCCNC(=N)N)C(N)=O)NC(=O)[C@H](CC(C)C)NC(=O)[C@H](CC(C)C)NC(=O)[C@H](CCC(N)=O)NC1=O [sTIP-09] (Ac-KKRYSR[S5]QLL[S5]FRRR-NH2; staple 7-11) has Kd of 7.8

Per the record, CC(=O)N[C@@H](CCCCN)C(=O)N[C@@H](CCCCN)C(=O)N[C@@H](CCCNC(=N)N)C(=O)N[C@@H](Cc1ccc(O)cc1)C(=O)N[C@@H](CO)C(=O)N[C@@H](CCCNC(=N)N)C(=O)N[C@@]1(C)CCCC=CCCC[C@@](C)(C(=O)N[C@@H](Cc2ccccc2)C(=O)N[C@@H](Cc2c[nH]c3ccccc23)C(N)=O)NC(=O)[C@H](CC(C)C)NC(=O)[C@H](CC(C)C)NC(=O)[C@H](CCC(N)=O)NC1=O [sTIP-07] (Ac-KKRYSR[S5]QLL[S5]FW-NH2; staple 7-11) has Kd of 42.5

Per the record, CC(=O)N[C@@H](CCCNC(=N)N)C(=O)N[C@@H](Cc1ccc(O)cc1)C(=O)N[C@@H](CO)C(=O)N[C@@H](CCCNC(=N)N)C(=O)NC1(C)CCCC=CCCCC(C)(C(=O)N[C@@H](Cc2ccccc2)C(N)=O)NC(=O)[C@H](CC(C)C)NC(=O)[C@H](CC(C)C)NC(=O)[C@H](CCC(N)=O)NC1=O (stereo partly drawn) [sTIP-12] (Ac-RYSR[ξαMeNle(6-ylidene)]QLL[ξαMeNle(6-ylidene)]F-NH2; staple 5-9) has Kd of 397

Per the record, CC(=O)N[C@@H](CCCCN)C(=O)N[C@@H](CCCCN)C(=O)N[C@@H](CCCNC(=N)N)C(=O)N[C@@H](Cc1ccc(O)cc1)C(=O)N[C@@H](CO)C(=O)N[C@@H](CCCNC(=N)N)C(=O)N[C@@H](CCC(=O)O)C(=O)N[C@@H](CCC(N)=O)C(=O)N[C@@H](CC(C)C)C(=O)N[C@@H](CC(C)C)C(=O)N[C@@]1(C)CCCC=CCCC[C@@](C)(C(N)=O)NC(=O)[C@H](CCCNC(=N)N)NC(=O)[C@H](CCC(N)=O)NC(=O)[C@H](Cc2ccccc2)NC1=O [sTIP-10] (Ac-KKRYSREQLL[S5]FQR[S5]-NH2; staple 11-15) has Kd of 4.3

Per the record, CC(=O)N[C@@H](CCCNC(=N)N)C(=O)N[C@@H](Cc1ccc(O)cc1)C(=O)N[C@@H](CO)C(=O)N[C@@H](CCCNC(=N)N)C(=O)N[C@@]1(C)CCCC=CCCC[C@@](C)(C(=O)N[C@@H](CC(C)C)C(=O)N[C@@H](Cc2ccccc2)C(=O)N[C@@H](CCCNC(=N)N)C(N)=O)NC(=O)[C@H](CC(C)C)NC(=O)[C@H](CC(C)C)NC(=O)[C@H](CCC(N)=O)NC1=O [sTIP-14] (Ac-RYSR[S5]QLL[S5]LFR-NH2; staple 5-9) has Kd of 195

Per the record, CC(=O)N[C@@H](CCCCN)C(=O)N[C@@H](CCCCN)C(=O)N[C@@H](CCCNC(=N)N)C(=O)N[C@@H](Cc1ccc(O)cc1)C(=O)N[C@@H](CO)C(=O)N[C@@H](CCCNC(=N)N)C(=O)N[C@]1(C)CCCC=CCCC[C@](C)(C(=O)N[C@@H](Cc2ccccc2)C(N)=O)NC(=O)[C@H](CC(C)C)NC(=O)[C@H](CC(C)C)NC(=O)[C@H](CCC(N)=O)NC1=O [sTIP-05] (Ac-KKRYSR[R5]QLL[R5]F-NH2; staple 7-11) has Kd of 6.6

---

Record form. Attribute: koff. Fill in for each entry.
Biological target: Human recombinant eIF4E protein (Homo sapiens)
Construct: V28-V217; made in house; host or cells: Escherichia coli BL21 (DE3)
Experiment: Surface plasmon resonance binding of stapled-peptides to immobilized eIF4E
Settings: SPR, Biacore T200; eIF4E on CM5 chip, m7GTP; HBS-EP+ with 1 mM DTT, 3% DMSO; mean ± SEM from at-least two independent experiments; SEM; read-out: k off
Numbered stars: 1 amine (or outer) side, 2 acyl side, 3 side chain; on linkers, the order of the positions; unused ones are H or OH. Bridge positions count the residues as written; N and C are the ends. Square brackets hold non-standard residues; d marks the D form. Peptide text beside a SMILES is read from it. ξ: configuration not given here. ξαMeNle(6-ylidene) = CC(CCCC=[*:3])(N[*:1])C(=O)[*:2]; S5 = C=CCCC[C@](C)(N)C(=O)O
Kindly format the answer as number then unit.

Entry CC(=O)N[C@@H](CCCCN)C(=O)N[C@@H](CCCCN)C(=O)N[C@@H](CCCNC(=N)N)C(=O)N[C@@H](Cc1ccc(O)cc1)C(=O)N[C@@H](CO)C(=O)N[C@@H](CCCNC(=N)N)C(=O)N[C@@]1(C)CCCC=CCCC[C@@](C)(C(=O)N[C@@H](Cc2ccccc2)C(=O)N[C@@H](Cc2c[nH]c3ccccc23)C(N)=O)NC(=O)[C@H](CC(C)C)NC(=O)[C@H](CC(C)C)NC(=O)[C@H](CCC(N)=O)NC1=O [sTIP-07] (Ac-KKRYSR[S5]QLL[S5]FW-NH2; staple 7-11) , Human recombinant eIF4E protein (Homo sapiens) data, koff value: 0.028 s⁻¹

Entry CC(=O)N[C@@H](CCCNC(=N)N)C(=O)N[C@@H](Cc1ccc(O)cc1)C(=O)N[C@@H](CO)C(=O)N[C@@H](CCCNC(=N)N)C(=O)NC1(C)CCCC=CCCCC(C)(C(=O)N[C@@H](Cc2ccccc2)C(N)=O)NC(=O)[C@H](CC(C)C)NC(=O)[C@H](CC(C)C)NC(=O)[C@H](CCC(N)=O)NC1=O (some centres unmarked) [sTIP-12] (Ac-RYSR[ξαMeNle(6-ylidene)]QLL[ξαMeNle(6-ylidene)]F-NH2; staple 5-9) , Human recombinant eIF4E protein (Homo sapiens) data, koff value: 0.14 s⁻¹

---

Target: Human recombinant eIF4E protein (Homo sapiens)
Construct: V28-V217; made in house; host or cells: Escherichia coli BL21 (DE3)
Assay: Surface plasmon resonance binding of stapled-peptides to immobilized eIF4E
Conditions: SPR; mean ± SEM from at-least two independent experiments; SEM
Bridge positions count the residues as written; N and C are the ends. Square brackets hold non-standard residues; d marks the D form. Peptide text beside a SMILES is read from it. R5 = C=CCCC[C@@](C)(N)C(=O)O; S5 = C=CCCC[C@](C)(N)C(=O)O
Record form. Attribute: RT, Residence Time measured as 1/koff. Fill in for each entry.

Per the record, CC(=O)N[C@@H](CCCCN)C(=O)N[C@@H](CCCCN)C(=O)N[C@@H](CCCNC(=N)N)C(=O)N[C@@H](Cc1ccc(O)cc1)C(=O)N[C@@H](CO)C(=O)N[C@@H](CCCNC(=N)N)C(=O)N[C@]1(C)CCCC=CCCC[C@](C)(C(=O)N[C@@H](Cc2ccccc2)C(N)=O)NC(=O)[C@H](CC(C)C)NC(=O)[C@H](CC(C)C)NC(=O)[C@H](CCC(N)=O)NC1=O [sTIP-05] (Ac-KKRYSR[R5]QLL[R5]F-NH2; staple 7-11) has RT, Residence Time measured as 1/koff of 10.8 ± 0.9 s

Per the record, CC(=O)N[C@@H](CCCNC(=N)N)C(=O)N[C@@H](Cc1ccc(O)cc1)C(=O)N[C@@H](CO)C(=O)N[C@@H](CCCNC(=N)N)C(=O)N[C@@]1(C)CCCC=CCCC[C@@](C)(C(=O)N[C@@H](CC(C)C)C(=O)N[C@@H](Cc2ccccc2)C(=O)N[C@@H](CCCNC(=N)N)C(N)=O)NC(=O)[C@H](CC(C)C)NC(=O)[C@H](CC(C)C)NC(=O)[C@H](CCC(N)=O)NC1=O [sTIP-14] (Ac-RYSR[S5]QLL[S5]LFR-NH2; staple 5-9) has RT, Residence Time measured as 1/koff of 18.3 ± 4.5 s

Per the record, CC(=O)N[C@@H](CCCCN)C(=O)N[C@@H](CCCCN)C(=O)N[C@@H](CCCNC(=N)N)C(=O)N[C@@H](Cc1ccc(O)cc1)C(=O)N[C@@H](CO)C(=O)N[C@@H](CCCNC(=N)N)C(=O)N[C@@H](CCC(=O)O)C(=O)N[C@@H](CCC(N)=O)C(=O)N[C@@H](CC(C)C)C(=O)N[C@@H](CC(C)C)C(=O)N[C@@]1(C)CCCC=CCCC[C@@](C)(C(N)=O)NC(=O)[C@H](CCCNC(=N)N)NC(=O)[C@H](CCC(N)=O)NC(=O)[C@H](Cc2ccccc2)NC1=O [sTIP-10] (Ac-KKRYSREQLL[S5]FQR[S5]-NH2; staple 11-15) has RT, Residence Time measured as 1/koff of 39.7 ± 3.1 s

Just for reference, paper PMC6385854 is where these values come from.
